meta.source: the kinase profiling compilation of Christmann-Franck et al. (2016)

For each entry below, report its residual activity value.
STUDY_SYSTEM: UniProt:Q02156
Sequence (Q02156 whole entry, looked up): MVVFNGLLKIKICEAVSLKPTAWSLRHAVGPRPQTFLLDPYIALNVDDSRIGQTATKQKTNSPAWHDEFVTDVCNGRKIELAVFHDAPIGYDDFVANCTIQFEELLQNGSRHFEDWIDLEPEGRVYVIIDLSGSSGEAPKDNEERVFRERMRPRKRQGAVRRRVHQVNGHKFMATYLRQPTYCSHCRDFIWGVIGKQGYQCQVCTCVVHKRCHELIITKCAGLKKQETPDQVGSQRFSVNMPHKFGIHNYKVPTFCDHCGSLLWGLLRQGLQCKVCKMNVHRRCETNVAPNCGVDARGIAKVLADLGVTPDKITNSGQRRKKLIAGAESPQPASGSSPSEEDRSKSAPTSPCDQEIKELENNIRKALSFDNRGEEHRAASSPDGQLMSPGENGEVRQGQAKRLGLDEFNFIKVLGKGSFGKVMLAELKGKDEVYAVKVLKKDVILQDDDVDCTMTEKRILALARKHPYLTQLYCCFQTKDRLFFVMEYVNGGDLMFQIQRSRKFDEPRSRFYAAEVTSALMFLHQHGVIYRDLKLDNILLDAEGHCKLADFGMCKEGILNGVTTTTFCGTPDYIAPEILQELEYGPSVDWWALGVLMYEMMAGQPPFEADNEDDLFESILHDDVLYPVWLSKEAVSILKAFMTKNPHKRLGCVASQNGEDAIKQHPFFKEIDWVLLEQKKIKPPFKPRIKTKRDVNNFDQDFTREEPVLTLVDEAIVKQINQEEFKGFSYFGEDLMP
PROCEDURE_DETAILS: radiometric filter-binding kinase assay, Kinase HotSpot
CONDITION_NOTES: compound 0.5 µM; ATP 10 µM
Answers are plain numbers, in %.

| COMPOUND | residual activity / % |
| --- | --- |
| Cc1[nH]c(/C=C2\C(=O)Nc3ccc(S(=O)(=O)N(C)c4cccc(Cl)c4)cc32)c(C)c1C(=O)N1CCN(C)CC1 | 99.1 |

Below are some compounds; for each one, tell me its residual activity.
1. Cc1ccc(NC2=CC(=O)c3sc(C)nc3C2=O)cc1
2. CC#CC(=O)Nc1cc2c(Nc3ccc(F)c(Cl)c3)ncnc2cn1

A:
[96.3, 88.3]

###

STUDY_SYSTEM: ACVR1B (human)
PROCEDURE_DETAILS: radiometric filter-binding kinase assay, Kinase HotSpot
CONDITION_NOTES: compound 0.5 µM; ATP 10 µM
MEASUREMENT_NAME: residual activity (%)
One number for each entry, in %.

Examples with answers:
| MOLECULE | MEASUREMENT_NAME | UNIT_TAG | ENDPOINT_RESULT |
| --- | --- | --- | --- |
| O=C1NC(=O)/C(=C/c2ccc3c(c2)OC(F)(F)O3)S1 | residual activity | % | 99.4 |
| c1ccc(-c2n[nH]c3c2oc2ccccc23)cc1 | residual activity | % | 96.6 |
| CC#CC(=O)Nc1cc2c(Nc3ccc(F)c(Cl)c3)ncnc2cn1 | residual activity | % | 104 |

Respectfully, I request residual activity for each entry included below.
1. Nc1ccc2ncnc(NCCc3ccc(Oc4ccccc4)cc3)c2c1
2. Nc1ncnc2c1c(-c1ccc(Oc3ccccc3)cc1)cn2C1CCCC1
3. Nc1ncnc2[nH]nc(Nc3ccc(F)cc3)c12
4. CO[C@H]1CC2CC[C@@H](C)[C@@](O)(O2)C(=O)C(=O)N2CCCC[C@H]2C(=O)OC([C@H](C)C[C@@H]2CC[C@@H](O)[C@H](OC)C2)CC(=O)[C@H](C)/C=C(\C)[C@@H](O)[C@@H](OC)C(=O)[C@H](C)C[C@H](C)/C=C/C=C/C=C/1C (some centres undefined)
5. CCCC(=O)Oc1ccc2[nH]c(C(=O)c3cc4ccccc4[nH]3)cc2c1
6. O=C1Nc2ccc(Cl)cc2/C1=C/c1cc(Cl)c(O)c(Cl)c1
7. c1ccc(-c2n[nH]cc2-c2ccnc3ccccc23)nc1

A:
[101, 93.9, 104, 97.6, 98.9, 127, 43.2]

# batch: return residual activity for each of the 8 molecules below
1. CC(=O)c1ccc(N2CCOCC2)cc1O
2. CCN(CC)C(=O)c1ccc(Nc2nc(OCC3CCCCC3)c3nc[nH]c3n2)cc1
3. N#C/C(=C(/N)Sc1ccc(N)cc1)c1ccccc1C(F)(F)F
4. CCOC(=O)c1c(C)[nH]c(/C=C2\C(=O)Nc3ccccc32)c1C
5. COc1cc2ncnc(Nc3cccc(Cl)c3)c2cc1OC
6. CCN(CC)CCNC(=O)c1c(C)[nH]c(/C=C2\C(=O)Nc3ccc(Cl)cc32)c1C
7. Cc1[nH]c(/C=C2\C(=O)Nc3ccc(S(=O)(=O)N(C)c4cccc(Cl)c4)cc32)c(C)c1C(=O)N1CCN(C)CC1
8. O=C(Nc1cccc(Nc2nccc(Nc3cccc(C(F)(F)F)c3)n2)c1)C1CC1

A:
[100, 101, 101, 96.6, 98, 103, 102, 110]

Batch lookup, residual activity per entry.
1. COc1ccc2c(c[n+](C)c3c4cc5c(cc4ccc23)OCO5)c1OC
2. O=c1cc(N2CCOCC2)oc2c1ccc1ccccc12
3. COc1ccc(COc2ccc(Cc3cnc(N)nc3N)cc2OC)cc1
4. Nc1cccc(-c2cc3c(Oc4cccc(O)c4)ncnc3[nH]2)c1
5. Cc1ccc(NC2=CC(=O)c3sc(C)nc3C2=O)cc1

A:
[110, 103, 97.8, 122, 110]

Q: Would you mind telling me what residual activity value was observed for O=C1NC(=O)c2c1c1c3ccccc3n3c1c1c2c2ccccc2n1C1CCC3O1 ?
A: 113

###

Assign residual activity to each entry below.
STUDY_SYSTEM: UniProtKB Q14289
Sequence (Q14289 whole entry, looked up): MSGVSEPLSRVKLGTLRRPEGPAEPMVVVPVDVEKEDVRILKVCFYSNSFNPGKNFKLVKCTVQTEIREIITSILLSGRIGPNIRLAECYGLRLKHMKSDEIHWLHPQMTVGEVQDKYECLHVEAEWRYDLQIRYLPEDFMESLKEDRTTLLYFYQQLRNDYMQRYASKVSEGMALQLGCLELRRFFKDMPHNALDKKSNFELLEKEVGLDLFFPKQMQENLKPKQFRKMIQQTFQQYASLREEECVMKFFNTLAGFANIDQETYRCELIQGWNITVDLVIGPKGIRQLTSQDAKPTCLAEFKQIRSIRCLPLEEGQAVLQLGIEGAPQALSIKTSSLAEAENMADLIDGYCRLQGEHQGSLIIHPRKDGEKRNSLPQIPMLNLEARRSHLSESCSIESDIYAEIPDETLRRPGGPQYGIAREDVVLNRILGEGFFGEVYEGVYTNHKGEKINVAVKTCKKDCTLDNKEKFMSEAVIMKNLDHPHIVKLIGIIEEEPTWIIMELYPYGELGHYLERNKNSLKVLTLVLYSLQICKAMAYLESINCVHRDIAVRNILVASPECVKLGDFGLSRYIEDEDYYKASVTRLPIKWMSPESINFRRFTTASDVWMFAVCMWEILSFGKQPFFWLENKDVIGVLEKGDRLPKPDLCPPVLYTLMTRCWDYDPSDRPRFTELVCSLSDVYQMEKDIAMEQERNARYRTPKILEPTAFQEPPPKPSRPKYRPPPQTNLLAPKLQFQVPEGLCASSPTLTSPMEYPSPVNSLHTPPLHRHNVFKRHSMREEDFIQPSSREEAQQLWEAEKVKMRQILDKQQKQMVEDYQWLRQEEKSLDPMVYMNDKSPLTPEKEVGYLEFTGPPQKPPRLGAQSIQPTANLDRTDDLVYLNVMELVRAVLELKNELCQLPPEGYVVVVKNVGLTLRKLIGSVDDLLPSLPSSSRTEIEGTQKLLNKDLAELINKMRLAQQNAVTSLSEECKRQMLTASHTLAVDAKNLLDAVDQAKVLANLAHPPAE
PROCEDURE_DETAILS: radiometric filter-binding kinase assay, Kinase HotSpot
CONDITION_NOTES: compound 0.5 µM; ATP 10 µM
Give bare numbers, in %.

Reference set (5 entries):
| STRUCTURE_STRING | ENDPOINT_RESULT |
| --- | --- |
| O=S(=O)(c1cccc2cnccc12)N1CCCNCC1 | 90.6 |
| Cc1ccc(Nc2nccc(N(C)c3ccc4c(C)n(C)nc4c3)n2)cc1S(N)(=O)=O | 92 |
| CCCC(=O)Oc1ccc2[nH]c(C(=O)c3cc4ccccc4[nH]3)cc2c1 | 87.6 |
| CCC(=O)Nc1ccc2ncnc(Nc3cccc(Br)c3)c2c1 | 99 |
| CNC(=O)c1cc(Oc2ccc(NC(=O)Nc3ccc(Cl)c(C(F)(F)F)c3)cc2)ccn1 | 101 |

Go through the items and report each one's residual activity.
1. c1ccc(-c2n[nH]c3c2oc2ccccc23)cc1
2. CCN(CC)C(=O)c1ccc(Nc2nc(OCC3CCCCC3)c3nc[nH]c3n2)cc1
3. CC(=O)c1ccc(N2CCOCC2)cc1O
4. CCN(CC)CCNC(=O)c1c(C)[nH]c(/C=C2\C(=O)Nc3ccc(Cl)cc32)c1C
5. c1ccc(-c2n[nH]cc2-c2ccnc3ccccc23)nc1
6. Nc1ncnc2c1c(-c1ccc(Oc3ccccc3)cc1)cn2C1CCCC1

A:
1. 96.8
2. 48.7
3. 102
4. 30.5
5. 96.1
6. 96.7

// input: 2 compounds below; output: residual activity for each
1. O=C1NC(=O)c2c1c1c3ccccc3n3c1c1c2c2ccccc2n1C1CCC3O1
2. CCN(CC)CCNC(=O)c1c(C)[nH]c(/C=C2\C(=O)Nc3ccc(F)cc32)c1C

A:
41.5
38.3

Q: Suppose we examine the compound N#C/C(=C(/N)Sc1ccc(N)cc1)c1ccccc1C(F)(F)F ; what residual activity value has been reported?
A: 105

###

STUDY_SYSTEM: PRKCG (human)
PROCEDURE_DETAILS: radiometric filter-binding kinase assay, Kinase HotSpot
CONDITION_NOTES: compound 0.5 µM; ATP 10 µM
So I've got a bunch of compounds here, and I need their residual activity values.
Give bare numbers, in %.

| COMPOUND | MEASUREMENT_NAME | ENDPOINT_RESULT |
| --- | --- | --- |
| O=S(=O)(c1cccc2cnccc12)N1CCCNCC1 | residual activity | 110 |
| O=C1NC(=O)/C(=C/c2ccc3c(c2)OC(F)(F)O3)S1 | residual activity | 101 |
| O=c1cc(N2CCOCC2)oc2c1ccc1ccccc12 | residual activity | 101 |
| CO[C@H]1CC2CC[C@@H](C)[C@@](O)(O2)C(=O)C(=O)N2CCCC[C@H]2C(=O)OC([C@H](C)C[C@@H]2CC[C@@H](O)[C@H](OC)C2)CC(=O)[C@H](C)/C=C(\C)[C@@H](O)[C@@H](OC)C(=O)[C@H](C)C[C@H](C)/C=C/C=C/C=C/1C (some centres not stated) | residual activity | 106 |
| CCN(CC)C(=O)c1ccc(Nc2nc(OCC3CCCCC3)c3nc[nH]c3n2)cc1 | residual activity | 94.5 |

Batch of 5 compounds: report residual activity for each.
1. CCC(=O)Nc1ccc2ncnc(Nc3cccc(Br)c3)c2c1
2. CC[n+]1c(/C=C/N(C)c2ccccc2)n(-c2ccccc2)c2ccc(-c3nc4ccccc4s3)cc21
3. COc1ccc(COc2ccc(Cc3cnc(N)nc3N)cc2OC)cc1
4. Oc1cccc(-c2nc(N3CCOCC3)c3oc4ncccc4c3n2)c1
5. c1ccc(-c2n[nH]c3c2oc2ccccc23)cc1

A:
1: 102; 2: 99.4; 3: 102; 4: 102; 5: 99.9

Give one value of residual activity per listed compound.
1. Cc1ccc(S(=O)(=O)/C=C/C#N)cc1
2. CCN(CC)CCNC(=O)c1c(C)[nH]c(/C=C2\C(=O)Nc3ccc(Cl)cc32)c1C
3. O=C(Nc1cccc(Nc2nccc(Nc3cccc(C(F)(F)F)c3)n2)c1)C1CC1
4. N#CC(C#N)=C(N)/C(C#N)=C/c1ccc(O)cc1

A:
1: 92.9; 2: 101; 3: 90.9; 4: 105

List the reported residual activity of each compound below.
1. CNc1cc2c(Nc3cccc(Br)c3)ncnc2cn1
2. CCOC(=O)c1c(C)[nH]c(/C=C2\C(=O)Nc3ccccc32)c1C
3. Nc1cccc(-c2cc3c(Oc4cccc(O)c4)ncnc3[nH]2)c1
4. COc1ccc2c(c[n+](C)c3c4cc5c(cc4ccc23)OCO5)c1OC
5. Cc1ccc(NC2=CC(=O)c3sc(C)nc3C2=O)cc1
6. CCCC(=O)Oc1ccc2[nH]c(C(=O)c3cc4ccccc4[nH]3)cc2c1
7. Nc1ccc2ncnc(NCCc3ccc(Oc4ccccc4)cc3)c2c1

A:
[105, 91.9, 88.1, 87.2, 77, 99, 95.2]

Q: For the compound shown here, N#C/C(=C(/N)Sc1ccc(N)cc1)c1ccccc1C(F)(F)F , give the reported residual activity.
A: 99.5
